Target: KRAS WT (Homo sapiens (Human), UniProt P01116+P62937)
Sequence (P01116 other isoform, or with tags, fused parts or gaps): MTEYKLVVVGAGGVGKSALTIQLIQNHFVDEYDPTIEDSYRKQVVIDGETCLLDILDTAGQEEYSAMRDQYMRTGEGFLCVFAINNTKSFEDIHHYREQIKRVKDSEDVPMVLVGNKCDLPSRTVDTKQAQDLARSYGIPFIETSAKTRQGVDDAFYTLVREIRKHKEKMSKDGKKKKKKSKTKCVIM
Sequence (P62937 whole entry): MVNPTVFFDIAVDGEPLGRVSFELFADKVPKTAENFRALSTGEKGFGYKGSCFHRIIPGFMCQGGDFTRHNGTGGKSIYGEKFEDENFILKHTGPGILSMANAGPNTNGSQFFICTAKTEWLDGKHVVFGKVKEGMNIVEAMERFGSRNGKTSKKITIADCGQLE
Assay: Ras-Raf disruption/FRET/MOA assay (BRAF RBD, Cyclophilin A)
Assay type: biochemical
Settings: read-out: KRAS WT FRET data IC50
pIC50: −log10 of the molar value.
# maps each entry to its pIC50

[[record]]
compound = "CCn1c(-c2cccnc2[C@H](C)OC)c2c3cc(ccc31)-c1csc(n1)C[C@H](NC(=O)[C@H](C(C)C)N(C)C(=O)N1CC3(CC(N(C)C4COC4)C3)C1)C(=O)N1CCC[C@H](N1)C(=O)OCC(C)(C)C2"
target_under_test = "KRAS WT (Homo sapiens (Human), UniProt P01116+P62937)"
value_measured = "6.00 to 7.00"

[[record]]
compound = "CCn1c(-c2cccnc2[C@H](C)OC)c2c3cc(ccc31)-c1csc(n1)C[C@H](NC(=O)[C@H](C(C)C)N(C)C(=O)N1CCOCC13COC3)C(=O)N1CCC[C@H](N1)C(=O)OCC(C)(C)C2"
target_under_test = "KRAS WT (Homo sapiens (Human), UniProt P01116+P62937)"
value_measured = "6.00 to 7.00"

[[record]]
compound = "CCn1c(-c2cccnc2[C@H](C)OC)c2c3cc(ccc31)-c1csc(n1)C[C@H](NC(=O)[C@H](C(C)C)N(C)C(=O)N(C)[C@@H]1CCN(C)C1)C(=O)N1CCC[C@H](N1)C(=O)OCC(C)(C)C2"
target_under_test = "KRAS WT (Homo sapiens (Human), UniProt P01116+P62937)"
value_measured = "6.00 to 7.00"

[[record]]
compound = "CCn1c(-c2cccnc2[C@H](C)OC)c2c3cc(ccc31)-c1cc(O)cc(c1)C[C@H](NC(=O)[C@H](C(C)C)N(C)C(=O)C1CNCCO1)C(=O)N1CCC[C@H](N1)C(=O)OCC(C)(C)C2 (some centres unmarked)"
target_under_test = "KRAS WT (Homo sapiens (Human), UniProt P01116+P62937)"
value_measured = "6.00 to 7.00"

[[record]]
compound = "CCn1c(-c2cnccc2COC)c2c3cc(ccc31)-c1cc(O)cc(c1)C[C@H](NC(=O)[C@H](C(C)C)N(C)c1cnc(N)[nH]c1=O)C(=O)N1CCC[C@H](N1)C(=O)OCC(C)(C)C2"
target_under_test = "KRAS WT (Homo sapiens (Human), UniProt P01116+P62937)"
value_measured = "5.00 to 6.00"

[[record]]
compound = "CCn1c(-c2ccccc2CCOC)c2c3cc(ccc31)-c1cc(O)cc(c1)C[C@H](NC(=O)[C@H](C(C)C)N(C)C(=O)CNC(=N)N)C(=O)N1CCC[C@H](N1)C(=O)OCC(C)(C)C2"
target_under_test = "KRAS WT (Homo sapiens (Human), UniProt P01116+P62937)"
value_measured = "5.00 to 6.00"

[[record]]
compound = "CCn1c(-c2cccnc2[C@H](C)OC)c2c3cc(ccc31)-c1cc(O)cc(c1)C[C@H](NC(=O)[C@H](C(C)C)N(C)C(=O)C13CC(CO1)C3)C(=O)N1CCC[C@H](N1)C(=O)OCC(C)(C)C2"
target_under_test = "KRAS WT (Homo sapiens (Human), UniProt P01116+P62937)"
value_measured = "7.00 to 8.00"

[[record]]
compound = "CCn1c(-c2cccnc2[C@H](C)OC)c2c3cc(ccc31)-c1csc(n1)C[C@H](NC(=O)[C@H](C(C)C)N(C)C(=O)[C@H]1CCN(S(C)(=O)=O)C1)C(=O)N1CCC[C@H](N1)C(=O)OCC(C)(C)C2"
target_under_test = "KRAS WT (Homo sapiens (Human), UniProt P01116+P62937)"
value_measured = "5.00 to 6.00"

[[record]]
compound = "CCn1c(-c2cccnc2[C@H](C)OC)c2c3cc(ccc31)-c1csc(n1)C[C@H](NC(=O)[C@H](C(C)C)N(C)C(=O)N1CC3(CCN(C)C3)C1)C(=O)N1CCC[C@H](N1)C(=O)OCC(C)(C)C2"
target_under_test = "KRAS WT (Homo sapiens (Human), UniProt P01116+P62937)"
value_measured = "6.00 to 7.00"

[[record]]
compound = "CCn1c(-c2cccnc2[C@H](C)OC)c2c3cc(ccc31)-c1csc(n1)C[C@H](NC(=O)[C@H](C(C)C)N(C)C(=O)N1CC([C@H](C)N(C)C)C1)C(=O)N1CCC[C@H](N1)C(=O)OCC(C)(C)C2"
target_under_test = "KRAS WT (Homo sapiens (Human), UniProt P01116+P62937)"
value_measured = "6.00 to 7.00"


// sample CCn1c(-c2cccnc2[C@H](C)OC)c2c3cc(ccc31)-c1cc(O)cc(c1)C[C@H](NC(=O)[C@@H]1[C@@H](C)CCCN1C(C)=O)C(=O)N1CCC[C@H](N1)C(=O)OCC(C)(C)C2 , its pIC50 was 6.00 to 7.00

get_value(item= CCn1c(-c2cccnc2[C@H](C)OC)c2c3cc(ccc31)-c1csc(n1)C[C@H](NC(=O)[C@H](C(C)C)N(C)C(=O)N1C[C@@H]3OCCN(C)[C@H]3C1)C(=O)N1CCC[C@H](N1)C(=O)OCC(C)(C)C2 , readout=pIC50) returns 6.00 to 7.00

Lab note: CCn1c(-c2cccnc2[C@H](C)OC)c2c3cc(ccc31)-c1cc(O)cc(c1)C[C@H](NC(=O)[C@H](C(C)C)N(C)C(=O)[C@H]1CCCCNC1)C(=O)N1CCC[C@H](N1)C(=O)OCC(C)(C)C2 gave pIC50 of 7.00 to 8.00

pIC50 measured on CCn1c(-c2cccnc2[C@H](C)OC)c2c3cc(ccc31)-c1cc(O)cc(c1)C[C@H](NC(=O)[C@H](C(C)C)N(C)C(=O)[C@H]1CCN(C3CC3)C1)C(=O)N1CCC[C@H](N1)C(=O)OCC(C)(C)C2 = 5.00 to 6.00

Lab note: CCn1c(-c2cccnc2[C@H](C)OC)c2c3cc(ccc31)-c1cc(O)cc(c1)C[C@H](NC(=O)[C@H](C(C)C)N(C)C(=O)[C@H]1[C@@H]3CNC[C@@H]31)C(=O)N1CCC[C@H](N1)C(=O)OCC(C)(C)C2 gave pIC50 of 6.00 to 7.00

Lab note: CCn1c(-c2cccnc2[C@H](C)OC)c2c3cc(ccc31)-c1cc(O)cc(c1)C[C@H](NC(=O)[C@H](C(C)C)N(C)C(=O)C1CCC(C(F)(F)F)O1)C(=O)N1CCC[C@H](N1)C(=O)OCC(C)(C)C2 (some centres unmarked) gave pIC50 of 6.00 to 7.00

pIC50 reported for this compound CCn1c(-c2cccnc2[C@H](C)OC)c2c3cc(ccc31)-c1cc(O)cc(c1)C[C@H](NC(=O)[C@H](C(C)C)N(C)C(=O)[C@H]1OCC[C@H]1N)C(=O)N1CCC[C@H](N1)C(=O)OCC(C)(C)C2 : 6.00 to 7.00
